# protocol details: chemical genetic growth profiling, strain panel (AID 1159580);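 also: tested at 20 µM; growth read once vehicle control cultures reached saturation at 30 °C; 1 = growth at the plate median or of vehicle wells; lower values mean less growth of the strain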
# experimental parameters: S. cerevisiae deletion strains, growth OD, locus YML120C, strain ndi1, stronger effect = lower value
Hit rate of the full screen: of about 5,500 compounds, about 2,000 (36%) were called active. Not shown: some 18% with an inconclusive outcome. The list shows a part of the results.
readout kind: normalized growth
Answer with the value's number alone.

Completed entries (count: 5):
compound	normalized growth
CC(=O)OCC(CCn1cnc2cnc(N)nc21)COC(C)=O	0.989
CCc1ccc(CCOc2ccc(CC3SC(=O)NC3=O)cc2)nc1 (stereo not drawn)	1.02
O=C(O)COc1cc(Cl)c(Cl)cc1Cl	0.999
C[C@@H](N)CO	0.983
COc1ccc2c(c1)OC[C@@H](Cc1ccc(OC)c(OC)c1)[C@H]2O	1

Lab note: CN1CCc2cc3c(cc2C1O)OCO3 (stereo not drawn) gave normalized growth of 0.995

Lab note: O=C(O)C1CC([C@@H]2CCCCN2)CN2CCCCC12 (stereo partly drawn) gave normalized growth of 0.991

Lab note: `OCCN(CCO)c1nc(N2CCCCC2)c2nc(N(CCO)CCO)nc(N3CCCCC3)c2n1` gave normalized growth of 1.02

Lab note: `COC(=O)COc1cc(Cl)c(Cl)cc1Cl` gave normalized growth of 0.995
